Source listed as paper PMC6508677.

# Assayed target: hGLUT8 (Homo sapiens, UniProt Q9NY64, E7R/E8R)
# Construct: expressed in transfected cells; host or cells: HEK293 (HEK293-FLIP, native hGLUT1 knocked down)
# Sequence (Q9NY64 1-477 E7R/E8R): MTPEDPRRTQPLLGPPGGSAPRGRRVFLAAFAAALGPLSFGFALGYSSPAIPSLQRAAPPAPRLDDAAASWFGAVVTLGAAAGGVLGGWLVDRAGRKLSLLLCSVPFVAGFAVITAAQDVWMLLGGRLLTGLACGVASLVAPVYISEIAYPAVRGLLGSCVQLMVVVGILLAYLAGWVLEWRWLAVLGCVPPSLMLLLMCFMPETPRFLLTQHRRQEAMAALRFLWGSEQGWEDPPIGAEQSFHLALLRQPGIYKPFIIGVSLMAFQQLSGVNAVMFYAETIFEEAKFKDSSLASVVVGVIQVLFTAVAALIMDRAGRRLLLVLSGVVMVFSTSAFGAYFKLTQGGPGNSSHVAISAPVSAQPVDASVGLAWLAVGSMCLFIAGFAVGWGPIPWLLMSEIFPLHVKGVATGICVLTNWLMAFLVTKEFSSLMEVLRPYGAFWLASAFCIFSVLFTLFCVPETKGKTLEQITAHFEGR
# Experiment notes: [3H]-D-fructose uptake by HEK293 cells overexpressing hGLUT8
# Assay type: cell-based
# Settings: GLUT8; D-frc Uptake; average of Expt 1-3; read-out: AVE IC50
Quantity measured: IC50 (µM)
State the answer as a number, implicitly in µM.

Query block: # query: IC50 of entry Cc1ccc(S(=O)(=O)CCNC(=O)c2c(-c3c(Cl)cccc3Cl)noc2C)cc1
Result block: 22

----------
# Assayed target: PfHT (Plasmodium falciparum, UniProt Q7KWJ5)
# Sequence (Q7KWJ5 whole entry): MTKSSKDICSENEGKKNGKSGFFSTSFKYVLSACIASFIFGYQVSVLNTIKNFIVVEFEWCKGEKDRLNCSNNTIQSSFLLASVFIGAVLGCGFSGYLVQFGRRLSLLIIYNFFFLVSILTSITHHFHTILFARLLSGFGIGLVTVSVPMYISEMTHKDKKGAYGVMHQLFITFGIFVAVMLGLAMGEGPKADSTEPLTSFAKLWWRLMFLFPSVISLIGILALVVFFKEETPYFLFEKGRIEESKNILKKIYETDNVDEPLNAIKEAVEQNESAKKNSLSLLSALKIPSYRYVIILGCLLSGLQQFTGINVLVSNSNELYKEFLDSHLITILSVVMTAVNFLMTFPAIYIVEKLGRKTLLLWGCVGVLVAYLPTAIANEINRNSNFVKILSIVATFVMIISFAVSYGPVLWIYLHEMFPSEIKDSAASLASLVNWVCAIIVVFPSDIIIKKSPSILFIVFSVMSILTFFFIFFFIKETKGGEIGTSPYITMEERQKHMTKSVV
# Experiment notes: 2-DG uptake by HEK293 cells overexpressing PfHT
# Type: cell-based
# Set-up: expressed in transfected cells; host or cells: HEK293 (HEK293-FLIP, native hGLUT1 knocked down by shRNA)
# Settings: HEK293, 4 min, read-out: 2-DG uptake (percent uptake relative to vehicle), AVE, PfHT; 2.5 µM compound
Assignment: determine reported remaining activity at 2.5 µM for the given compounds.

Query block: # query: remaining activity at 2.5 µM of entry Cc1ccc(S(=O)(=O)CCNC(=O)c2c(-c3c(Cl)cccc3Cl)noc2C)cc1 [WU-1]
Result block: 68.2%

Query block: # query: remaining activity at 2.5 µM of entry COc1c(Br)cc([N+](=O)[O-])c(OC)c1C(=O)NC(=O)Nc1c(C)cccc1Cl [WU-2]
Result block: 62.4%

Query block: # query: remaining activity at 2.5 µM of entry COc1cc(/C=C2\COC/C(=C\c3cc(OC)c(OC)c(OC)c3)C2=O)cc(OC)c1OC [WU-5]
Result block: 61.4%

Query block: # query: remaining activity at 2.5 µM of entry COc1cc(/C=N/NC(=O)c2cc(-c3ccccc3)sc2N)cc(OC)c1OC [WU-3]
Result block: 104%
